target under test: Glucose transporter (Leishmania mexicana) (UniProt O61059)
assay procedure: ST_JUDE_LEISH: Cytotoxicity at 2uM final concentration against transgenic Leishmania Mexicana promastigotes LmGT2 that are glucose transport deficient and complemented with the L. Mexicana glucose transporter 2. Activity is measured by DNA content using SYBR green in vitro
Format: functional
value type: inhibition (%)
Number in %, nothing else.

>>> measured_value("COc1cc2nc(NC3CCN(Cc4ccccc4)CC3)nc(N)c2cc1OC")
13
>>> measured_value("COc1ccc(C2CC(c3ccccc3O)=NN2C(=O)c2ccco2)cc1OC (stereo not given)")
-2.92
>>> measured_value("C#CC(C)(CO)N1CCCC1 (stereo not given)")
1.64
>>> measured_value("CC(=NNC(S)=NC(C)(C)C)c1ccccn1")
49.6
>>> measured_value("Nc1nc(N)c2c(ccc3[nH]c(-c4ccccc4Cl)nc32)n1")
61.8

# input Entry `COc1ccc2nccc(N3CCCN(CCNS(=O)(=O)c4ccc5c(c4)NC(=O)CS5)CC3)c2n1` : reported inhibition = ?
# output -0.73

# input And then `Oc1ccc(CCCNc2nc(NCc3cccc4ccccc34)nc(N3CCNCC3)n2)cc1` , what is it?
# output 0.63

# input And then `O=C(Cn1c(CCc2cccc(F)c2F)nc(=O)c2ccccc21)N(Cc1ccc(-c2ccc(C(F)(F)F)cc2)cc1)C1CCN(C2CCSCC2)CC1` , what is it?
# output 3.92

# input And then `COc1ccc2nc(C)cc(Nc3ccc(Oc4ccc5ccccc5c4)c(Cl)c3)c2c1` , what is it?
# output 1.45

# input And then Cc1cc(NCC2CCN(CC3CCCCC3)C2)nc(Nc2ccc(Cl)cc2)n1 (stereo not given) , what is it?
# output 2.45

# input And then CCOc1ncccc1CN1CCC(N2CCc3cc(NC(=O)c4ccco4)ccc32)C1 (stereo not given) , what is it?
# output 1.65

# input And then `Cc1cc(-c2cccc3c(NC(=O)N4CCc5cc6nccc(N7CCN8CCC[C@H]8C7)c6cc54)cccc23)cc(C)n1` , what is it?
# output 1.59

# input And then `COc1ccc(CNc2ccc3nc(N)nc(N)c3c2)cc1` , what is it?
# output -1.87

# input And then `CN1CCN(CCCNCc2cccc(-c3ccc(CNCCc4ccccc4)cc3)c2)CC1` , what is it?
# output 1.49

# input And then `O=C(Nc1ccc(CCN2CCC(c3nc(COCC(F)(F)F)c(-c4ccccc4)o3)CC2)cc1)c1ccc(F)cc1` , what is it?
# output -0.66

# input And then `COc1ccc(-c2nnc(Sc3ccc(C#N)c([N+](=O)[O-])c3)n2CCC(C)C)cc1` , what is it?
# output -0.81

# input And then `Cc1cc(N[C@@H](Cc2ccccc2)C(=O)NCc2cccc(F)c2)nc(NCCc2ccc(F)cc2)n1` , what is it?
# output 1.36

# input And then `O=S(=O)(c1ccccc1)n1ccc2cc(Nc3ncnc4cc(C#C[C@H]5CCCN5)sc34)ccc21` , what is it?
# output -0.2

# input And then `CCN(CCCN1CCCCC1)c1cc(C)nc(Nc2cc(C)ccc2C)n1` , what is it?
# output -0.58

# input And then `CN1CCC(c2c[nH]c3ccc(NC(=O)Nc4ccc(-c5ccncc5)c(Cl)c4Cl)cc23)CC1` , what is it?
# output 4.75
